biological target: Translocator protein (Rattus norvegicus)
Sequence (P16257 whole entry, looked up): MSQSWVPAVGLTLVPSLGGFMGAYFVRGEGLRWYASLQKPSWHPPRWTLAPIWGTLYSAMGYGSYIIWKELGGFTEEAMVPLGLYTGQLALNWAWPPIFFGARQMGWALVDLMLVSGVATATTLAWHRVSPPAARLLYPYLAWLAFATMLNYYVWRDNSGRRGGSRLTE
pKi: −log10 of the molar value.
pKi values for the compounds below.
readout-label: pKi

{"molecular-string": "COc1ccc(C2=C(OC(=O)c3cccnc3)c3cccn3-c3ccccc3S2)cc1", "bound-sign": "<", "assay-value": 8.00}
{"molecular-string": "CC(=O)OC1=C(c2ccc(Cl)cc2)Sc2ccccc2-n2cccc21", "bound-sign": "=", "assay-value": 7.52}
{"molecular-string": "CN(C)C(=O)OC1=C(c2ccccc2)Sc2ccccc2-n2cccc21", "bound-sign": "=", "assay-value": 8.05}
{"molecular-string": "C1=C(c2ccccc2)Sc2ccccc2-n2cccc21", "bound-sign": "=", "assay-value": 5.50}
